substrate: NC(=O)C1=CN([C@@H]2O[C@H](COP(=O)(O)OP(=O)(O)OC[C@H]3O[C@@H](n4cnc5c(N)ncnc54)[C@H](O)[C@@H]3O)[C@@H](O)[C@H]2O)C=CC1; test: purified protein, by the assay type; details: other: Table 15, substrate NADH; tag N; apparent values; pH 8.0
Recorded kcat/Km by entry
Could you give me the number in M⁻¹ s⁻¹? Just the number is fine.

{"columns": ["protein", "kcat/Km, M⁻¹ s⁻¹"],
 "data": [
  ["Comamonas testosteroni 3α-HSDH dual mutant [L68A/T188S], N-terminal hexahistidine tag (Comamonas testosteroni; L68A/T188S) (protein) MSIIVISGCATGIGAATRKVLEAAGHQIVGIDIRDAEVIADLSTAEGRKQAIADVLAKCSKGMDGLVACAGLGPQTKVLGNVVSVNYFGATELMDAFLPALKKGHQPAAVVISSVASAHLAFDKNPLALALEAGEEAKARAIVEHAGEQGGNLAYAGSKNALTVAVRKRAAAWGEAGVRLNTIAPGASETPLLQAGLQDPRYGESIAKFVPPMGRRAEPSEMASVIAFLMSPAASYVHGAQIVIDGGIDAVMRPTQF", "1.94e+06"],
  ["Comamonas testosteroni 3α-HSDH dual mutant [P185A/T188A], N-terminal hexahistidine tag (Comamonas testosteroni; P185A/T188A) (protein) MSIIVISGCATGIGAATRKVLEAAGHQIVGIDIRDAEVIADLSTAEGRKQAIADVLAKCSKGMDGLVLCAGLGPQTKVLGNVVSVNYFGATELMDAFLPALKKGHQPAAVVISSVASAHLAFDKNPLALALEAGEEAKARAIVEHAGEQGGNLAYAGSKNALTVAVRKRAAAWGEAGVRLNTIAAGAAETPLLQAGLQDPRYGESIAKFVPPMGRRAEPSEMASVIAFLMSPAASYVHGAQIVIDGGIDAVMRPTQF", 52600]
]}

Task: Data request, read-out kcat/Km, for Comamonas testosteroni 3α-HSDH mutant [T188S], N-terminal hexahistidine tag (Comamonas testosteroni; T188S) (protein) MSIIVISGCATGIGAATRKVLEAAGHQIVGIDIRDAEVIADLSTAEGRKQAIADVLAKCSKGMDGLVLCAGLGPQTKVLGNVVSVNYFGATELMDAFLPALKKGHQPAAVVISSVASAHLAFDKNPLALALEAGEEAKARAIVEHAGEQGGNLAYAGSKNALTVAVRKRAAAWGEAGVRLNTIAPGASETPLLQAGLQDPRYGESIAKFVPPMGRRAEPSEMASVIAFLMSPAASYVHGAQIVIDGGIDAVMRPTQF
Result: 1.1e+06
